- methodDescription: qHTS Assay for Spectroscopic Profiling in 4-MU Spectral Region
- testContext: compound autofluorescence, 340/450 nm, 4-MU equivalents; hits give high values
About 6,200 (11%) of roughly 59,000 compounds were called active. Not shown: some 9% with an inconclusive outcome. The sample as a whole holds a higher share of actives than the screen did.
experimentalEndpoint: max dye-equivalent concentration

Sample answers from the record:
compound	max dye-equivalent concentration
O=C(NCCC1=CCCCC1)C1CCN(Cc2cnn(-c3ccccc3)c2-n2cccc2)CC1	inactive
COc1ccc(-n2nnnc2SCC(=O)c2ccc(OC)c(OC)c2)cc1	inactive
Cc1ccc(OCC(=O)Nc2ccc(-c3nc4ncccc4o3)cc2)cc1	25 nM (active)
CCc1ccc(Nc2ncc3c(n2)CC(c2ccco2)CC3=O)cc1 (stereo not given)	38 nM (active)
N#CC(C(N)=O)=C1CCC2(CC1)OCCCCO2	inactive

Asked: Input COc1ccc2[nH]c(=O)c(-c3noc(-c4ccc(F)cc4)n3)cc2c1 , output reported max dye-equivalent concentration.
Given back: 12 nM (active)

Asked: Please indicate max dye-equivalent concentration recorded for Cc1ccccc1N1C(=O)C2ON(c3ccccc3)C(c3ccncc3)C2C1=O (stereo not given)
Given back: inactive

Asked: Input CCOc1cc(S(=O)(=O)NC2CC(C)(C)NC(C)(C)C2)ccc1F , output reported max dye-equivalent concentration.
Given back: inactive

Asked: Fill in reported max dye-equivalent concentration for this entry: Cc1cc(Cl)c(S(=O)(=O)NCc2cccnc2)cc1OCC(N)=O
Given back: inactive

Asked: For the compound COc1cccc(NC(=O)CN(C)S(=O)(=O)c2ccc(C)cc2)c1 , give its reported max dye-equivalent concentration.
Given back: inactive

Data origin, for the record: PubChem BioAssay AID589
